Attribution: paper PMC6713120

Some molecules, each annotated with its measured −TΔΔS.
system name: E35D↑G↑S mutant HIV-1 subtype C protease (Human immunodeficiency virus type 1 group M subtype C, UniProt Q994Q3, D118E/E93D/I94G/INS93GS)
particulars: mutant-wild type
Lab note: record just the number, no unit beside it.

Example entries begin here.
{"input smiles": "Cc1c(O)cccc1C(=O)N[C@@H](CSc1ccccc1)[C@H](O)CN1C[C@H]2CCCC[C@H]2C[C@H]1C(=O)NC(C)(C)C", "−TΔΔS": "−1.8"}
{"input smiles": "CC(C)(C)NC(=O)[C@@H]1C[C@@H]2CCCC[C@@H]2CN1C[C@@H](O)[C@H](Cc1ccccc1)NC(=O)[C@H](CC(N)=O)NC(=O)c1ccc2ccccc2n1", "−TΔΔS": 0.4}
{"input smiles": "CCC[C@@]1(CCc2ccccc2)CC(O)=C([C@H](CC)c2cccc(NS(=O)(=O)c3ccc(C(F)(F)F)cn3)c2)C(=O)O1", "−TΔΔS": "−7.1"}

Incoming: Indicate the recorded −TΔΔS value for this molecule: "Cc1cccc(C)c1OCC(=O)N[C@@H](Cc1ccccc1)[C@@H](O)C[C@H](Cc1ccccc1)NC(=O)[C@H](C(C)C)N1CCCNC1=O"
Outgoing: 14.7

Incoming: Indicate the recorded −TΔΔS value for this molecule: "COC(=O)N[C@H](C(=O)N[C@@H](Cc1ccccc1)[C@@H](O)CN(Cc1ccc(-c2ccccn2)cc1)NC(=O)[C@@H](NC(=O)OC)C(C)(C)C)C(C)(C)C"
Outgoing: −1.5

----------
system name: E35D↑G↑S mutant HIV-1 subtype C protease (Human immunodeficiency virus type 1 group M subtype C, UniProt Q994Q3, D118E/E93D/I94G/INS93GS)
run description: biochemical
particulars: v = (Ki × Kcat/Km)MUT/(Ki × Kcat/Km)WT, wild type as reference
reported metric: log vitality

{"input smiles": "CC(C)CN(C[C@@H](O)[C@H](Cc1ccccc1)NC(=O)O[C@H]1CO[C@H]2OCC[C@H]21)S(=O)(=O)c1ccc(N)cc1", "log vitality": "around two"}
{"input smiles": "Cc1c(O)cccc1C(=O)N[C@@H](CSc1ccccc1)[C@H](O)CN1C[C@H]2CCCC[C@H]2C[C@H]1C(=O)NC(C)(C)C", "log vitality": "around two"}
{"input smiles": "CCC[C@@]1(CCc2ccccc2)CC(O)=C([C@H](CC)c2cccc(NS(=O)(=O)c3ccc(C(F)(F)F)cn3)c2)C(=O)O1", "log vitality": "around two"}
{"input smiles": "CC(C)(C)NC(=O)[C@@H]1CN(Cc2cccnc2)CCN1C[C@@H](O)C[C@@H](Cc1ccccc1)C(=O)N[C@H]1c2ccccc2C[C@H]1O", "log vitality": "~1.00"}
{"input smiles": "CC(C)c1nc(CN(C)C(=O)N[C@H](C(=O)N[C@@H](Cc2ccccc2)C[C@H](O)[C@H](Cc2ccccc2)NC(=O)OCc2cncs2)C(C)C)cs1", "log vitality": 0.30}

# input for lookup
Incoming: Indicate the recorded log vitality value for this compound: "CC(C)CN(C[C@@H](O)[C@H](Cc1ccccc1)NC(=O)O[C@H]1CCOC1)S(=O)(=O)c1ccc(N)cc1"
Outgoing: 0.36

----------
// endpoint pIC50 / system wild type C-SA HIV protease (Human immunodeficiency virus type 1 group M subtype C)
pIC50 here is simply -log10 of the concentration when that concentration is written in mol/L.

Example entries begin here.
{"input smiles": "Cc1cccc(C)c1OCC(=O)N[C@@H](Cc1ccccc1)[C@@H](O)C[C@H](Cc1ccccc1)NC(=O)[C@H](C(C)C)N1CCCNC1=O", "reported metric": "pIC50", "obs value": 8.52}
{"input smiles": "CC(C)(C)NC(=O)[C@@H]1C[C@@H]2CCCC[C@@H]2CN1C[C@@H](O)[C@H](Cc1ccccc1)NC(=O)[C@H](CC(N)=O)NC(=O)c1ccc2ccccc2n1", "reported metric": "pIC50", "obs value": 9.11}
{"input smiles": "COC(=O)N[C@H](C(=O)N[C@@H](Cc1ccccc1)[C@@H](O)CN(Cc1ccc(-c2ccccn2)cc1)NC(=O)[C@@H](NC(=O)OC)C(C)(C)C)C(C)(C)C", "reported metric": "pIC50", "obs value": 8.97}
{"input smiles": "CC(C)(C)NC(=O)[C@@H]1CN(Cc2cccnc2)CCN1C[C@@H](O)C[C@@H](Cc1ccccc1)C(=O)N[C@H]1c2ccccc2C[C@H]1O", "reported metric": "pIC50", "obs value": 8.46}

# input for lookup
Incoming: Give reported pIC50 for "Cc1c(O)cccc1C(=O)N[C@@H](CSc1ccccc1)[C@H](O)CN1C[C@H]2CCCC[C@H]2C[C@H]1C(=O)NC(C)(C)C" (wild type C-SA HIV protease (Human immunodeficiency virus type 1 group M subtype C))
Outgoing: 8.70
